// values below are reported Ratio CC50/EC50
Species: Homo sapiens
measurement-protocol: Selectivity index, ratio of CC50 for human HEK293T cells transfected with DYRK1A co-tranfected with Renilla plasmid, pGL3-NFAT and NFATc1 assessed as reduction in luciferase activity by measuring cell number to EC50 for human DYRK1A transfected in HEK293T cells co-transfected with Renilla plasmid, pGL3-NFAT and NFATc1 assessed as derepression of NFAT-dependent luciferase activity measured after 48 hrs by luciferase assay
Assay type: cell-based
Number, no unit, nothing else.

These solved cases illustrate the format of a correct answer.
smiles-entry	quantity	reported
CCCCNC(=O)c1cnc2ccc(-c3cc(Cl)c(O)c(Cl)c3)nc2c1N[C@H]1CC[C@H](CN(C)C)CC1	Ratio CC50/EC50	17
CCOC(=O)c1cnc2ccc(-c3cc(Cl)c(O)c(Cl)c3)nc2c1NC1CCN(C)CC1	Ratio CC50/EC50	170
CCOC(=O)c1cnc2ccc(-c3cc(Cl)c(O)c(Cl)c3)nc2c1N[C@H]1CC[C@H](CO)CC1	Ratio CC50/EC50	27
CCOC(=O)c1cnc2ccc(-c3ccnc(O)c3)nc2c1N[C@H]1CC[C@H](CN(C)C)CC1	Ratio CC50/EC50	6
CCCCNC(=O)c1cnc2ccc(-c3cc(Cl)c(O)c(Cl)c3)nc2c1N[C@H]1CC[C@H](CN2CCOCC2)CC1	Ratio CC50/EC50	18
CCOC(=O)c1cnc2ccc(-c3cc(Cl)c(O)c(Cl)c3)nc2c1N[C@H]1CC[C@H](CN)CC1	Ratio CC50/EC50	20

# input If you can, please state the reported Ratio CC50/EC50 value of CCOC(=O)c1cnc2ccc(-c3ccncc3)nc2c1N[C@H]1CC[C@H](CN(C)C)CC1 .
# output 36

# input Item under review: CCOC(=O)c1cnc2ccc(-c3cc(Cl)c(O)c(Cl)c3)nc2c1N[C@H]1CC[C@H](CC(N)=O)CC1 . Reported Ratio CC50/EC50?
# output 44

# input Could you share which Ratio CC50/EC50 value was measured for NC(=O)C[C@H]1CC[C@H](Nc2c(CO)cnc3ccc(-c4cc(Cl)c(O)c(Cl)c4)nc23)CC1 ?
# output 27

# input Which Ratio CC50/EC50 value is on record for CC(=O)c1cnc2ccc(-c3cc(Cl)c(O)c(Cl)c3)nc2c1N[C@H]1CC[C@H](C(N)=O)CC1 ?
# output 153

# input Fill blank: measured Ratio CC50/EC50 of the molecule CCOC(=O)c1cnc2ccc(-c3cc(Cl)c(O)c(Cl)c3)nc2c1Nc1ccc(CN(C)C)cc1 is ____.
# output 146

# input Fill in the blank: the reported Ratio CC50/EC50 of CCOC(=O)c1cnc2ccc(-c3cc(Cl)c(O)c(Cl)c3)nc2c1N[C@H]1CC[C@H](CN(C)C)CC1 is ____.
# output 26

====

assayed-system: AURKB (Aurora kinase B) (Homo sapiens, UniProt Q96GD4)
Sequence (Q96GD4 whole entry): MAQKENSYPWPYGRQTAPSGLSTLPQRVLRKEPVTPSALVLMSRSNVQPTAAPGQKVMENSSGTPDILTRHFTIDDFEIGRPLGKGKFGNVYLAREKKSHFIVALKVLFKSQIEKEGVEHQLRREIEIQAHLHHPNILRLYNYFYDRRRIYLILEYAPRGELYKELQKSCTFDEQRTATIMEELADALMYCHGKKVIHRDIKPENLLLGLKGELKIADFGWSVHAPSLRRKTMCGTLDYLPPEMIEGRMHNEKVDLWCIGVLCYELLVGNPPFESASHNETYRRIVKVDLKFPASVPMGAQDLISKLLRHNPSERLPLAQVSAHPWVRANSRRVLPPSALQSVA
measurement-protocol: Inhibition of AURKB in human HEK293T cells assessed as reduction in cell viability at 3 uM measured after 48 hrs relative to control
Format: cell-based, HEK-293T
quantity: inhibition at 48 h, 3 µM (%)
Output spec: scalar in %, unitless text.

# input Report inhibition at 48 h, 3 µM for O=C(O)[C@]1(Cc2cccc(Nc3nccs3)n2)CC[C@@H](Oc2cccc(Cl)c2F)CC1 [MK-5108] please.
# output 24
